target: Voltage-dependent L-type calcium channel subunit alpha-1C (Rattus norvegicus); assay type: functional; note: assay procedure not described here
Sequence (P22002 whole entry): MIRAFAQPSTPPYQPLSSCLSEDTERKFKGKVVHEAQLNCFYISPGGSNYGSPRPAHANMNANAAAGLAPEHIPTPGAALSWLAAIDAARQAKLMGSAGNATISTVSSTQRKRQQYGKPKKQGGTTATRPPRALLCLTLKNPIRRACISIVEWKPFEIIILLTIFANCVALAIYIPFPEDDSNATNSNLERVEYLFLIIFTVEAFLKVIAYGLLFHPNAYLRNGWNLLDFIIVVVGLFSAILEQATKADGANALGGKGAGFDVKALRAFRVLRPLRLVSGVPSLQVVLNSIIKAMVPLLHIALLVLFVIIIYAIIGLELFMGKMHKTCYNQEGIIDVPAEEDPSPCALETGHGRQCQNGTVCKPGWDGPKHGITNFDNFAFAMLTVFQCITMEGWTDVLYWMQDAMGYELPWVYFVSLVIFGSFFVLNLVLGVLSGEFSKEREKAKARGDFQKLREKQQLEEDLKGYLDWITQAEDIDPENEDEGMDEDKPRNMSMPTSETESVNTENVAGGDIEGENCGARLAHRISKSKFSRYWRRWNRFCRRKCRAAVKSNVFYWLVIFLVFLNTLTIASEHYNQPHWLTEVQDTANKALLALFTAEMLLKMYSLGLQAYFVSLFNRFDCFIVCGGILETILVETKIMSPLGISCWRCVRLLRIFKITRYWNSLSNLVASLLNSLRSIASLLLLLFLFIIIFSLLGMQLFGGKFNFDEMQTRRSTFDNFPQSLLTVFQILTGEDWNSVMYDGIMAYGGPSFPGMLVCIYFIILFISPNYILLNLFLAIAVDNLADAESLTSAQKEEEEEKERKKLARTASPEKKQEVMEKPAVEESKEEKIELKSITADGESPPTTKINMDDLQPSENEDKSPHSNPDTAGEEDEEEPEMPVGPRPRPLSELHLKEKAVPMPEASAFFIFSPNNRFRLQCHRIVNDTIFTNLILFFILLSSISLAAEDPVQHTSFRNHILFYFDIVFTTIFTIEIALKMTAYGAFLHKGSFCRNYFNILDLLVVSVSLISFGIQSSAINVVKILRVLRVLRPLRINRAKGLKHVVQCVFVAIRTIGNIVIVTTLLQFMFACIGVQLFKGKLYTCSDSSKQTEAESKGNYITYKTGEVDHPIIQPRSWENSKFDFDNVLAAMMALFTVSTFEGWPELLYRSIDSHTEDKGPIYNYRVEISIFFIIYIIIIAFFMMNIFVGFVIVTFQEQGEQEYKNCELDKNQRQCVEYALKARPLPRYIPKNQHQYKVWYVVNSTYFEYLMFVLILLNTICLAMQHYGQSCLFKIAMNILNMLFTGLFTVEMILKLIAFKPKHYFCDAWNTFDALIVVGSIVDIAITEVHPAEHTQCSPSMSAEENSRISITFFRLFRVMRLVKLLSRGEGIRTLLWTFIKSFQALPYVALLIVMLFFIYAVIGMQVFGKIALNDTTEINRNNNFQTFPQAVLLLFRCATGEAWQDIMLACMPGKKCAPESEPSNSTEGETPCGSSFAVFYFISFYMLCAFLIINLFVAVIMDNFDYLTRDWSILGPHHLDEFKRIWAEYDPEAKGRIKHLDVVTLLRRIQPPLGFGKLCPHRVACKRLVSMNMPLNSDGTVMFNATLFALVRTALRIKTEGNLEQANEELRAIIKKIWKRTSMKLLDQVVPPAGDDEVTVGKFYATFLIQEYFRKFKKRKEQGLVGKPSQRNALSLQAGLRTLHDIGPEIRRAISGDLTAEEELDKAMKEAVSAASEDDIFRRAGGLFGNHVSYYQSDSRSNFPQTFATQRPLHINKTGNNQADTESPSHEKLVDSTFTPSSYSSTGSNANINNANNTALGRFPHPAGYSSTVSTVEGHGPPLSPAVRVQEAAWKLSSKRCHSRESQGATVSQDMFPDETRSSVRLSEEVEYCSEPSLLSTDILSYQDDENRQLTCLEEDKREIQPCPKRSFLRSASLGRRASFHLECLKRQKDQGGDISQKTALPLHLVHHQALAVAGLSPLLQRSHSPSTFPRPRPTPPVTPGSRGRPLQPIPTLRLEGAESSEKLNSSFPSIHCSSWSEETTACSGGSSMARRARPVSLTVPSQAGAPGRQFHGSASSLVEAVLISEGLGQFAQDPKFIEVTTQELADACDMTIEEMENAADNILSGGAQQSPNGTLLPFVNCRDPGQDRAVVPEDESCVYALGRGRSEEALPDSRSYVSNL
measurement-kind: AC50

These recorded examples may help you get a feel for the data.
1. CC(C)COCC(CN(Cc1ccccc1)c1ccccc1)N1CCCC1 (stereo not given) [BEPRIDIL] :: 24 µM
2. COCC1=C(C(=O)O)N2C(=O)[C@@H](NC(=O)/C(=N\OC)c3csc(N)n3)[C@H]2SC1 [CEFPODOXIME] :: > 30 µM
3. Nc1cc(-c2ccncc2)c[nH]c1=O [INAMRINONE] :: > 10 µM
4. CNC1=Nc2ccc(Cl)cc2C(c2ccccc2)=[N+]([O-])C1 [CHLORDIAZEPOXIDE] :: > 10 µM

Next compound, AC50 to be filled in.
For the compound NC1CCN(c2nc3c(cc2F)c(=O)c(C(=O)O)cn3-c2ccc(F)cc2F)C1 (stereo not given) [TOSUFLOXACIN] , what AC50 is on record? > 30 µM

---

Lab note: AC50 readings collected with Adenosine receptor A3 (Homo sapiens) for the following compounds.
Sequence (P0DMS8 whole entry): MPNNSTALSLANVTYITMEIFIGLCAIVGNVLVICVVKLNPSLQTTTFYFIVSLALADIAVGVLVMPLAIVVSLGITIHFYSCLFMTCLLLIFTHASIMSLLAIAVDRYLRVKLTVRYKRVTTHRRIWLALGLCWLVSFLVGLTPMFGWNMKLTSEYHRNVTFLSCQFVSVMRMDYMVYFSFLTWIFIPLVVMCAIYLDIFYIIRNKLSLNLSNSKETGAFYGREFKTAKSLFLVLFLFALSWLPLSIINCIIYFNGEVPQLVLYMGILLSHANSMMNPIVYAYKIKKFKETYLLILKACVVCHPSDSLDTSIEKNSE

1. Cn1cnc2c(F)c(Nc3ccc(Br)cc3Cl)c(C(=O)NOCCO)cc21 :: > 30 µM

Sample CCN1CCN(Cc2ccc(Nc3ncc(F)c(-c4cc(F)c5nc(C)n(C(C)C)c5c4)n3)nc2)CC1 — what was its AC50? > 30 µM

// returns reported AC50 for input O=C1CN(/N=C/c2ccc(-c3ccc([N+](=O)[O-])cc3)o2)C(O)=N1 > 30 µM

Which value of AC50 has been reported for CCN(CC)CCNC(=O)c1cc(S(C)(=O)=O)ccc1OC [TIAPRIDE] in the records? > 30 µM

---

Measured AC50 accompanies every entry in the list below.
target: Histamine H1 receptor (Homo sapiens); note: assay procedure not described here
Sequence (P35367 whole entry): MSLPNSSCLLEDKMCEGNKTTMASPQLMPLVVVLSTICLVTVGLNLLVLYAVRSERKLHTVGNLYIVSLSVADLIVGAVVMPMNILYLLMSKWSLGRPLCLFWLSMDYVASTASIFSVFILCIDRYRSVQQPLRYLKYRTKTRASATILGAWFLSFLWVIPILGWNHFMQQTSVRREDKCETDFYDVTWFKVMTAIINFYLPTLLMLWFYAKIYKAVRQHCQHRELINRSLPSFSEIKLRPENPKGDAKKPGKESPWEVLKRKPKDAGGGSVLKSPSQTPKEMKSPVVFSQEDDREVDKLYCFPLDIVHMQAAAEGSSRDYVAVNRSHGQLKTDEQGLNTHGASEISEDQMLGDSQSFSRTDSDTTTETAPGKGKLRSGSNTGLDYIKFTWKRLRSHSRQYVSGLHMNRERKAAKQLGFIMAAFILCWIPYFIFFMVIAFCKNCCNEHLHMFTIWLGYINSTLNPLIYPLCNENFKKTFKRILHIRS

Reference set, count: 2
1. CC(=O)[C@@]1(O)CC[C@H]2[C@@H]3C=C(Cl)C4=CC(=O)[C@@H]5C[C@@H]5[C@]4(C)[C@H]3CC[C@@]21C :: > 10 µM
2. COCC1=C(C(=O)O)N2C(=O)[C@@H](NC(=O)/C(=N\OC)c3csc(N)n3)[C@H]2SC1 :: > 30 µM

Return AC50 measured with Histamine H1 receptor (Homo sapiens) given this molecule: CCN(CC)C(=O)Nc1ccc(OCC(O)CNC(C)(C)C)c(C(C)=O)c1 (stereo not given) > 30 µM

Item Cc1ncc2n1-c1ccc(Cl)cc1C(c1ccccc1F)=NC2 with Histamine H1 receptor (Homo sapiens) - AC50? > 10 µM

---

The entries below are paired with their reported AC50.
target: Vasopressin V1a receptor (Homo sapiens); note: assay procedure not described here
Sequence (P37288 whole entry): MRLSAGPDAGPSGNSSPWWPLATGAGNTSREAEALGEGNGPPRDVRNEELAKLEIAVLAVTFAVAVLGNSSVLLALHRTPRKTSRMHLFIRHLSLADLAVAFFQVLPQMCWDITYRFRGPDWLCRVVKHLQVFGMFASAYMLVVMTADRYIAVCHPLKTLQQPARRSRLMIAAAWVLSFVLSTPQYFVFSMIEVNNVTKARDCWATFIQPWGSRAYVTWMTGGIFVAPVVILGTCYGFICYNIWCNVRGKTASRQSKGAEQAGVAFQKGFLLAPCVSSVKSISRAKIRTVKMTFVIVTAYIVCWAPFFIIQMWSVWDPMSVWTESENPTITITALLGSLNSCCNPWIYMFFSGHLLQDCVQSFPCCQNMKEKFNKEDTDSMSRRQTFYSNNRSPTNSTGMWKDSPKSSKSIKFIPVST

Take a look at these entries with their results.
1) CC(C)(C)C(=O)OCC(=O)[C@H]1CC[C@H]2[C@@H]3CCC4=CC(=O)CC[C@]4(C)[C@H]3CC[C@]12C [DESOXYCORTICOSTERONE PIVALATE] :: > 10 µM
2) CC(C)c1nc(N(C)S(C)(=O)=O)nc(-c2ccc(F)cc2)c1/C=C/[C@@H](O)C[C@@H](O)CC(=O)O :: > 30 µM
3) C#C[C@]1(OC(C)=O)CC[C@H]2[C@@H]3CCC4=C/C(=N/O)CC[C@@H]4[C@H]3CC[C@@]21CC [NORGESTIMATE] :: > 30 µM

Could you share what AC50 was measured for Oc1ccc2c(c1)CC[C@H](c1ccccc1)[C@@H]2c1ccc(OCCN2CCCC2)cc1 , tested on Vasopressin V1a receptor (Homo sapiens)? > 30 µM

Could you share what AC50 was measured for CC(C)NCC(O)c1ccc(O)c(O)c1 (stereo not given) , tested on Vasopressin V1a receptor (Homo sapiens)? > 10 µM

Field: AC50 (Vasopressin V1a receptor (Homo sapiens)). Entry: Clc1ccc2c(N3CCN(CCCN4CCN(c5ccnc6cc(Cl)ccc56)CC4)CC3)ccnc2c1 > 30 µM

What is its AC50 for Vasopressin V1a receptor (Homo sapiens)? Entry: CN(C)CCCNc1c2ccccc2nc2cccc([N+](=O)[O-])c12 > 30 µM

Any idea what AC50 came out for [H]/N=C(/N)N/C(=N/[H])NCCc1ccccc1 on Vasopressin V1a receptor (Homo sapiens)? > 30 µM

Param readout= AC50; system= Vasopressin V1a receptor (Homo sapiens); entry= CC(C)(C)NCC(O)c1cc(O)cc(O)c1 (stereo not given) ; returns value. > 30 µM

Entry C[C@H](Cc1ccc(O)c(O)c1)[C@@H](C)Cc1ccc(O)c(O)c1 , system Vasopressin V1a receptor (Homo sapiens): what AC50 was measured? > 10 µM

---

target: 3',5'-cyclic-AMP phosphodiesterase 4D (Homo sapiens, UniProt Q08499); type: functional; note: assay procedure not described here
Sequence (Q08499 whole entry): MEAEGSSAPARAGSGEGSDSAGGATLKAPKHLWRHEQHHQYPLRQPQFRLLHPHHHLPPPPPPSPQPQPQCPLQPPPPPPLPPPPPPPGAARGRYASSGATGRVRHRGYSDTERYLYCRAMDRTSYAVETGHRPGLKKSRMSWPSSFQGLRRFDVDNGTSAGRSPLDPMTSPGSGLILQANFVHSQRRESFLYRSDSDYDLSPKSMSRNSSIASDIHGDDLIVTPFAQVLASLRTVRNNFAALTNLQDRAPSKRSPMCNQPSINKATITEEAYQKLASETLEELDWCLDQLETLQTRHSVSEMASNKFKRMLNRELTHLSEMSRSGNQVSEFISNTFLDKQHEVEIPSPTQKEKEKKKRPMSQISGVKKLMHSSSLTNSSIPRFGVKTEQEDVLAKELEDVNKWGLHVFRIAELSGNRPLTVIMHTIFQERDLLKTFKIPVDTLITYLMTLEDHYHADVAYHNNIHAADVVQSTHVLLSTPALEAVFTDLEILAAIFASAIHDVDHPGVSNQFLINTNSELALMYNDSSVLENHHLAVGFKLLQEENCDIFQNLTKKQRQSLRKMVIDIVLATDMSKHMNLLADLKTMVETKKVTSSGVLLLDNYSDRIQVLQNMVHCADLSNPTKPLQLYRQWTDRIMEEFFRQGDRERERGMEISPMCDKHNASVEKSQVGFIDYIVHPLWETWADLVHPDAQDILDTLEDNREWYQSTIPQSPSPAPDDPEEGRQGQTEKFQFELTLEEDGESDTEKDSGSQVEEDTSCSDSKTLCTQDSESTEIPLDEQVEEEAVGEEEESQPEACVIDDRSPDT
measurement-kind: AC50

Give the reported AC50 for CCN1CCN(Cc2ccc(Nc3ncc(F)c(-c4cc(F)c5nc(C)n(C(C)C)c5c4)n3)nc2)CC1 (system: 3',5'-cyclic-AMP phosphodiesterase 4D (Homo sapiens, UniProt Q08499)). 3.2 µM

Identify the measured AC50 of CC1(C)S[C@@H]2[C@H](NC(=O)[C@H](N)c3ccccc3)C(=O)N2[C@H]1C(=O)OCOC(=O)[C@@H]1N2C(=O)C[C@H]2S(=O)(=O)C1(C)C for 3',5'-cyclic-AMP phosphodiesterase 4D (Homo sapiens, UniProt Q08499). > 30 µM

Hello, I am looking for reported AC50 with 3',5'-cyclic-AMP phosphodiesterase 4D (Homo sapiens, UniProt Q08499) for Cc1cc(C(C)(C)C)cc(C)c1CC1=NCCN1 . Could you help? > 30 µM

Lookup: AC50 / 3',5'-cyclic-AMP phosphodiesterase 4D (Homo sapiens, UniProt Q08499) / CC(N)C(O)c1ccccc1 (stereo unspecified) > 30 µM

Form field: AC50 recorded for CNCc1ccc(-c2[nH]c3cc(F)cc4c3c2CCNC4=O)cc1 with 3',5'-cyclic-AMP phosphodiesterase 4D (Homo sapiens, UniProt Q08499) (enter value) 10 µM

---

target: Cannabinoid receptor 1 (Homo sapiens, UniProt P21554); note: assay procedure not described here
Sequence (P21554 whole entry): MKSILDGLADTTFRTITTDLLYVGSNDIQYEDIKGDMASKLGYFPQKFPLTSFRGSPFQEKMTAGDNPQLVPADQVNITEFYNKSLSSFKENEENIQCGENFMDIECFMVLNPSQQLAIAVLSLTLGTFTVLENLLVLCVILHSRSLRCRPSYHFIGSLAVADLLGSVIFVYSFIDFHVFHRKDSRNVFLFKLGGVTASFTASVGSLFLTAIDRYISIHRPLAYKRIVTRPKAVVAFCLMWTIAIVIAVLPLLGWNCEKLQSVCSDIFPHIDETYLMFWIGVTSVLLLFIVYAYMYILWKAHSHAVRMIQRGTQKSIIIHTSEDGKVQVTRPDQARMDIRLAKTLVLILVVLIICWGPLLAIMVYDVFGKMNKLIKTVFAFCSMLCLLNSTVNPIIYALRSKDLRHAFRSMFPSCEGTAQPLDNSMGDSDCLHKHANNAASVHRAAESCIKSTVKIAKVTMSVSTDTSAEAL
measurement-kind: AC50

Here are 3 compounds together with their reported answers.
1. C=C1/C(=C\C=C2/CCC[C@]3(C)[C@@H]([C@H](C)/C=C/[C@@H](O)C4CC4)CC[C@@H]23)C[C@@H](O)C[C@@H]1O [CALCIPOTRIENE] :: > 30 µM
2. Nc1cc(-c2ccncc2)c[nH]c1=O [INAMRINONE] :: > 10 µM
3. O=C1CCc2cc(OCCCCc3nnnn3C3CCCCC3)ccc2N1 [CILOSTAZOL] :: > 10 µM

Param readout= AC50; system= Cannabinoid receptor 1 (Homo sapiens, UniProt P21554); entry= CC(N)C12CC3CC(CC(C3)C1)C2 (centres undefined) [RIMANTADINE] ; returns value. > 10 µM

---

biological target: UniProt:P41145
Sequence (P41145 whole entry): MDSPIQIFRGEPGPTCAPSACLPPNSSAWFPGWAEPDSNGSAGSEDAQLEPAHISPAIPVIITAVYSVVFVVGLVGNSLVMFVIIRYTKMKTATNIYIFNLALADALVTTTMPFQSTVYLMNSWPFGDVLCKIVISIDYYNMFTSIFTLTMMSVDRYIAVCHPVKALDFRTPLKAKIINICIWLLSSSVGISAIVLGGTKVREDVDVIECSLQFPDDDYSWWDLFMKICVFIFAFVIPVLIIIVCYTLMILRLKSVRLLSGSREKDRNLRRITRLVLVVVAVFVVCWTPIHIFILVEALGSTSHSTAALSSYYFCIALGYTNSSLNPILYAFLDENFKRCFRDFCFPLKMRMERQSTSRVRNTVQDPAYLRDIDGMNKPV
# AC50 per record follows

Sample records with AC50:
1) CC1OC2(CS1)CN1CCC2CC1 (stereo unspecified) :: > 10 µM
2) CCN(CC)CCNC(=O)c1cc(S(C)(=O)=O)ccc1OC [TIAPRIDE] :: > 30 µM
3) N[C@@H](CC(=O)N1CCn2c(nnc2C(F)(F)F)C1)Cc1cc(F)c(F)cc1F :: > 10 µM
4) CCN1CCCC1CNC(=O)c1cc(S(=O)(=O)CC)c(N)cc1OC (stereo unspecified) [AMISULPRIDE] :: > 30 µM
5) CN1C(C(=O)Nc2ccccn2)=C(O)c2ccccc2S1(=O)=O :: > 10 µM

Lab note: next molecule to report on.
Request: AC50, test system UniProt:P41145, entry C#C[C@]1(OC(C)=O)CC[C@H]2[C@@H]3CCC4=C/C(=N/O)CC[C@@H]4[C@H]3CC[C@@]21CC [NORGESTIMATE] > 30 µM

---

Let's go through some recorded AC50 values for Beta-2 adrenergic receptor (Homo sapiens, UniProt P07550) together.

1. O=C1C(CC[S+]([O-])c2ccccc2)C(=O)N(c2ccccc2)N1c1ccccc1 (centres undefined) [SULFINPYRAZONE] :: > 10 µM
2. CCCN[C@H]1CCc2nc(N)sc2C1 [PRAMIPEXOLE] :: > 30 µM
3. Cn1cnc2c(F)c(Nc3ccc(Br)cc3Cl)c(C(=O)NOCCO)cc21 [SELUMETINIB] :: > 10 µM

Request - read-out AC50 | tested on Beta-2 adrenergic receptor (Homo sapiens, UniProt P07550) | molecule Cc1noc(NS(=O)(=O)c2ccc(N)cc2)c1C [SULFISOXAZOLE] > 10 µM

What measured AC50 is associated with COc1cc2nc(N3CCN(C(=O)C4CCCO4)CC3)nc(N)c2cc1OC (centres undefined) [TERAZOSIN] on Beta-2 adrenergic receptor (Homo sapiens, UniProt P07550)? > 10 µM

---

molecular target: Alpha-2A adrenergic receptor (Homo sapiens, UniProt P08913); type: functional, cell-based; note: assay procedure not described here
measurement-kind: AC50

Completed entries (count: 3):
1) C[C@H]1c2cccc(O)c2C(=O)C2=C(O)[C@]3(O)C(=O)C(C(N)=O)=C(O)[C@@H](N(C)C)[C@@H]3[C@@H](O)[C@@H]21 :: > 10 µM
2) CCCCC(=O)O[C@]1(C(=O)CO)[C@@H](C)C[C@H]2[C@@H]3CCC4=CC(=O)C=C[C@]4(C)[C@@]3(F)[C@@H](O)C[C@@]21C [BETAMETHASONE VALERATE] :: > 10 µM
3) Nc1cc(-c2ccncc2)c[nH]c1=O :: > 10 µM

What does the data say about its AC50? Entry: CN(C)CCCNc1c2ccccc2nc2cccc([N+](=O)[O-])c12 > 30 µM

Form field: reported AC50 of N[C@@H](CC(=O)N1CCn2c(nnc2C(F)(F)F)C1)Cc1cc(F)c(F)cc1F > 30 µM
